Where these numbers come from: patent US6355799B1

Recorded Pre-emerge Herbicidal Activity SETVI (phytotoxicity rating, scale 0-100) values for a group of molecules are listed next.
System: green foxtail (Setaria viridis, SETVI)
protocol.summary: Pre-emerge test, greenhouse herbicide activity screening
Format: in vivo
condition.notes: 250 g ai/ha; pre-emerge; rated 14 days after application; 0 = no damage, 100 = complete death
Just the number, please.

1) COc1c(Cl)cc(F)c(-n2c(=O)c(N)c(C(F)(F)F)n(C)c2=O)c1N: 100

I'm curious: which Pre-emerge Herbicidal Activity SETVI (phytotoxicity rating, scale 0-100) was measured for Cn1c(C(F)(F)F)cc(=O)n(-c2c(N)cc(OC(F)F)cc2F)c1=O tested on green foxtail (Setaria viridis, SETVI)? 90

I'm curious: which Pre-emerge Herbicidal Activity SETVI (phytotoxicity rating, scale 0-100) was measured for COc1c(Cl)cc(F)c(-n2c(=O)cc(C(F)(F)F)n(C)c2=O)c1N tested on green foxtail (Setaria viridis, SETVI)? 100

I'm curious: which Pre-emerge Herbicidal Activity SETVI (phytotoxicity rating, scale 0-100) was measured for COc1c(Cl)cc(F)c(-n2c(=O)cc(C(F)(F)F)n(C)c2=O)c1NC(=O)c1cccc(C)c1 tested on green foxtail (Setaria viridis, SETVI)? 100

I'm curious: which Pre-emerge Herbicidal Activity SETVI (phytotoxicity rating, scale 0-100) was measured for Cn1c(C(F)(F)F)cc(=O)n(-c2c(F)cc(Cl)c(OCC#N)c2N)c1=O tested on green foxtail (Setaria viridis, SETVI)? 99

I'm curious: which Pre-emerge Herbicidal Activity SETVI (phytotoxicity rating, scale 0-100) was measured for CCOC(=O)C(C)Oc1c(Cl)cc(F)c(-n2c(=O)cc(C(F)(F)F)n(C)c2=O)c1N (centres unmarked) tested on green foxtail (Setaria viridis, SETVI)? 100

I'm curious: which Pre-emerge Herbicidal Activity SETVI (phytotoxicity rating, scale 0-100) was measured for C=CC(=O)N(C(=O)C=C)c1c(OC)c(Cl)cc(F)c1-n1c(=O)cc(C(F)(F)F)n(C)c1=O tested on green foxtail (Setaria viridis, SETVI)? 80

I'm curious: which Pre-emerge Herbicidal Activity SETVI (phytotoxicity rating, scale 0-100) was measured for O=c1cc(C(F)(F)F)[nH]c(=O)n1-c1c(F)cc(Cl)c(O)c1[N+](=O)[O-] tested on green foxtail (Setaria viridis, SETVI)? 0
